Target: hGIP-R (Homo sapiens, UniProt P48546)
Construct: expressed in transfected cells; host or cells: HEK-293 clonal cell lines
Assay: Functional hGIP-R Assay (cAMP formation, HTRF)
Type: cell-based
Details: cAMP potency; HEK-293 cells expressing hGIP-R; incubated at 37° C. in the presence of 0.1% bovine casein; geometric mean; read-out: Human GIP-R EC50, nM (SEM, n)
property_name: EC50 (nM)

INSERT INTO measurements (compound, assayed_system, property_name, units_text, value_measured) VALUES
  ('[2H]C([2H])([2H])n1cc(C[C@H](C(=O)NC(C)(C)Cn2nc(C(F)(F)F)cc2-c2cnc(C(C)(C)O)nc2)N2CC[C@@]3(C[C@@H]3c3ccc(-c4cnc5nn(C6CC6)cc5c4)nc3C)C2=O)cn1', 'hGIP-R (Homo sapiens, UniProt P48546)', 'EC50', 'nM', 2.89),
  ('Cn1cc2cc(-c3ccc([C@H]4C[C@@]45CCN([C@H](Cc4cnn(C(F)F)c4)C(=S)NC(C)(C)Cn4nc(C(F)(F)F)cc4-c4cc(F)c(=O)n(C)c4)C5=O)c(F)c3)cnc2n1 (single isomer, unassigned; isomer 1)', 'hGIP-R (Homo sapiens, UniProt P48546)', 'EC50', 'nM', 4.02),
  ('Cc1cn2cc(-c3ccc([C@H]4C[C@@]45CCN([C@H](Cc4cnn(C(F)F)c4)C(=O)NC(C)(C)Cn4nc(C(F)(F)F)cc4-c4ccc(=O)n(COP(=O)(O)O)n4)C5=O)c(Cl)c3)cnc2n1', 'hGIP-R (Homo sapiens, UniProt P48546)', 'EC50', 'nM', 2.06),
  ('Cn1cc(-c2cc(C(F)(F)F)nn2CC(C)(C)NC(=O)[C@@H](Cc2cnn(C(F)F)c2)NC(=O)[C@H]2C[C@@H]2c2ccc3c(Cl)nn(C)c3c2)cc(F)c1=O', 'hGIP-R (Homo sapiens, UniProt P48546)', 'EC50', 'nM', 44.9),
  ('CN(C(=O)[C@H]1C[C@@H]1c1ccc(NC(=O)C2CCC(F)(F)CC2)cc1)[C@H](Cc1cnn(C)c1)C(=O)NC(C)(C)Cn1nc(C(F)(F)F)cc1-c1ccc(=O)n(C)c1', 'hGIP-R (Homo sapiens, UniProt P48546)', 'EC50', 'nM', 135),
  ('COCc1cn2cc(-c3ccc([C@H]4C[C@@H]4C(=O)N[C@H](Cc4cnc5ncccn45)C(=O)NC(C)(C)Cn4cc(C(F)(F)F)cn4)cc3)cnc2n1', 'hGIP-R (Homo sapiens, UniProt P48546)', 'EC50', 'nM', 65),
  ('Cn1cc2cc(-c3ccc([C@H]4C[C@@H]4C(=O)N[C@H](Cc4cnn(C(F)F)c4)C(=O)NC(C)(C)Cn4nc(C(F)(F)F)cc4Br)cc3)cnc2n1', 'hGIP-R (Homo sapiens, UniProt P48546)', 'EC50', 'nM', 104),
  ('COc1ncc(-c2ccc([C@H]3C[C@@]34CCN([C@H](Cc3cnn(C(F)F)c3)C(=O)NC(C)(C)Cn3nc(C(F)(F)F)cc3-c3ccn(C5CC5)c(=O)c3)C4=O)c(C)n2)cc1F', 'hGIP-R (Homo sapiens, UniProt P48546)', 'EC50', 'nM', 6.09);

I: CC(C)(Cn1cc(C(F)(F)F)cn1)NC(=O)[C@@H](Cc1cnc2ncccn12)NC(=O)[C@H]1C[C@@H]1c1ccc(-c2cnc3nc(C4CCC4)cn3c2)cc1
II: Cc1cn2cc(-c3ccc([C@H]4C[C@@]45CCN([C@H](Cc4cnn(C(F)F)c4)C(=O)NC(C)(C)Cn4nc(C(F)(F)F)cc4-c4cnc(C6CC6)nc4)C5=O)cc3)cnc2n1 (single isomer, unassigned; isomer 1)
Param metric = EC50; output whichever of I , II has the minimum value. Label of pick, please.
I
(I: 20.3 nM, II: 58.5 nM)

P: Cn1cc(C[C@@H](NC(=O)[C@H]2C[C@@H]2c2ccc(-c3cnc4nn(C)cc4c3)nc2C(F)(F)F)C(=O)NC(C)(C)Cn2cc(C(F)(F)F)cn2)cn1
Q: CN(C(=O)[C@H]1C[C@@H]1c1ccc(-c2cnc3nn(C)cc3c2)cc1)[C@H](Cc1cnn(C)c1)C(=O)NC(C)(C)Cn1nc(C(F)(F)F)cc1-c1ccc(=O)n(C)c1
R: Cn1cc(C[C@@H](NC(=O)[C@H]2C[C@@H]2c2ccc(-c3cnc4nc(C(F)(F)F)cn4c3)cc2)C(=O)NC(C)(C)Cn2nc(C(F)(F)F)cc2-c2cn[nH]n2)cn1
S: Cn1cc2cc(-c3ccc(C4CC45CCN([C@H](Cc4cnn(C(F)F)c4)C(=O)NC(C)(C)Cn4nc(C(F)(F)F)cc4-c4ccc(=O)n(C)c4)C5=O)c(C(F)(F)F)n3)cnc2n1 (single isomer, unassigned; isomer 1)
T: Cc1nc(-c2cnc3nc(C4CC4)cn3c2)ccc1[C@H]1C[C@@]12CCN([C@H](Cc1cnn(C(F)F)c1)C(=O)NC(C)(C)Cn1nc(C(F)(F)F)cc1-c1ccn(C3CC3)c(=O)c1)C2=O
List the 5 entries from lowest EC50 to highest EC50 value. Record the ranking as a list of labels in the requested order.
T, S, R, P, Q

---

Biological target: hGIP-R (Homo sapiens)
Construct: expressed in transfected cells; host or cells: HEK-293 clonal cell lines
Assay: Functional hGIP-R Assay (cAMP formation, HTRF)
Type: cell-based
Details: cAMP efficacy; percent of maximal response to GIP(1-42)OH; 37° C., 0.1% bovine casein; arithmetic mean ± SEM
property_name: Emax (%)

INSERT INTO results (compound, assayed_system, value_measured) VALUES
  ('Cc1nc(C2CC2)nc(O)c1-c1cc(C(F)(F)F)nn1CC(C)(C)NC(=O)[C@@H](Cc1cnn(C(F)F)c1)N1CC[C@@]2(C[C@@H]2c2ccc(-c3cnc4nn(C)cc4c3)cc2)C1=O [Example 122]', 'hGIP-R (Homo sapiens)', 90.8),
  ('Cc1cn2cc(-c3ccc([C@H]4C[C@@]45CCN([C@H](Cc4cnn(C(F)F)c4)C(=O)NC(C)(C)Cn4nc(C(F)(F)F)cc4-c4cc(F)c(=O)n(C)c4)C5=O)c(C)c3)cnc2n1 [Example 144]', 'hGIP-R (Homo sapiens)', 63.3),
  ('CC(C)(Cn1cc(C(F)(F)F)cn1)NC(=O)[C@@H](Cc1cnc2ncccn12)NC(=O)[C@H]1C[C@@H]1c1ccc(NC(=O)C2CCC(F)(F)CC2)cc1 [Example 45]', 'hGIP-R (Homo sapiens)', 79.8);

P: CC(C)(Cc1ccc(F)cc1)NC(=O)[C@@H](Cc1cnc2ncccn12)NC(=O)[C@H]1C[C@@H]1c1ccc(-c2cnc3nccn3c2)cc1 [Example 87]
Q: Cn1cc(-c2cc(C(F)(F)F)nn2CC(C)(C)NC(=O)[C@@H](Cc2cnn(C(F)F)c2)NC(=O)[C@H]2C[C@@H]2c2nc3cnn(C)c3cc2F)cc(F)c1=O [Example 157]
Endpoint returns whichever of P and Q has the numerically higher Emax. Bench note: the answer is the label of the chosen record.
P

---

Molecular target: hGIP-R (Homo sapiens, UniProt P48546)
Construct: expressed in transfected cells; host or cells: HEK-293 clonal cell lines
Sequence (P48546 22-466): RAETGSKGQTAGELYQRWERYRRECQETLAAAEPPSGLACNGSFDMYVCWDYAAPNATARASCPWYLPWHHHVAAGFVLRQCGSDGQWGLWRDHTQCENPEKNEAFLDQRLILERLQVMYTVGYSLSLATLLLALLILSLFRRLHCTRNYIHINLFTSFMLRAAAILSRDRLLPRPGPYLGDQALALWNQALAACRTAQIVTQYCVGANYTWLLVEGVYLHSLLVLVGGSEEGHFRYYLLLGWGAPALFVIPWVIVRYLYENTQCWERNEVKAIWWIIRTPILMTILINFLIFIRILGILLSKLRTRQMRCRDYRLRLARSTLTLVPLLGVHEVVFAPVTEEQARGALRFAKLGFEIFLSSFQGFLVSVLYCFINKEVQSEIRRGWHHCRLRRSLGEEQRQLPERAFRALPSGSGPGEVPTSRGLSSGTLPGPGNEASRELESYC
Test: Functional hGIP-R Assay (cAMP formation, HTRF)
Assay type: cell-based
Conditions: cAMP efficacy; percent of maximal response to GIP(1-42)OH; 37° C., 0.1% bovine casein; arithmetic mean ± SEM
property_name: Emax (%)

Consider the following illustrative entries.
INSERT INTO results (compound, value_measured) VALUES
  ('Cn1cc(C[C@@H](NC(=O)[C@H]2C[C@@H]2c2ccc(-c3cnc4nn(C)cc4c3)cc2)C(=O)NC(C)(C)Cn2nc(C(F)(F)F)cc2-n2nccn2)cn1 (single isomer, unassigned)', 112),
  ('Cn1cc(C[C@@H](NC(=O)[C@H]2C[C@@H]2c2ccc(-c3cnc4nn(C)cc4c3)cc2)C(=O)NC(C)(C)Cn2nc(C(F)(F)F)cc2-c2cn[nH]c2)cn1', 111),
  ('Cn1cc(C[C@@H](NC(=O)C2CC2c2ccc(-c3cnc4nn(C)cc4c3)s2)C(=O)NC(C)(C)Cn2nc(C(F)(F)F)cc2-c2ccc(=O)n(C)c2)cn1 (single isomer, unassigned; isomer 2)', 89.8),
  ('Cn1cc2cc(-c3ccc(C4CC4C(=O)N[C@H](Cc4cnc5ncccn45)C(=O)NC(C)(C)Cn4cc(C(F)(F)F)cn4)c(F)c3)cnc2n1 (single isomer, unassigned; isomer 2)', 88.4),
  ('COCc1cn2cc(-c3ccc([C@H]4C[C@@]45CCN([C@H](Cc4cnn(C(F)F)c4)C(=O)NC(C)(C)Cn4nc(C(F)(F)F)cc4-c4cncc(C)n4)C5=O)c(C)n3)cnc2n1', 123),
  ('CC(C)(Cn1cc(C(F)(F)F)cn1)NC(=O)[C@@H](Cc1cnc2ncccn12)NC(=O)[C@H]1C[C@@H]1c1ccc(-c2cnc3nccn3c2)cc1', 84.6);

a: CN(C(=O)[C@H]1C[C@@H]1c1ccc(-c2cnc3nn(C)cc3c2)cc1)[C@H](Cc1cnn(C)c1)C(=O)NC(C)(C)Cn1nc(C(F)(F)F)cc1-c1ccc[nH]c1=O
b: Cn1cc2cc(-c3ccc([C@H]4C[C@@]45CCN([C@H](Cc4cnn(C(F)F)c4)C(=O)NC(C)(C)Cn4nc(C(F)(F)F)cc4-c4cnc(N6CCC(=O)CC6)nc4)C5=O)cc3)cnc2n1
I would appreciate it if you could say which entry, a or b , has the lower Emax value. Pick one; state its label.
b
